Items are presented alongside their recorded Papp.
# TEST: Apparent permeability across human Caco2 cells
# Format: ADME, cell-based
# RUN PARAMETERS: Caco-2
Field: numeric (×10⁻⁶ cm/s). Do not append units.

Challenge: Report Papp for CC(=O)OC(C)OC(=O)[C@H](Cc1ccc(-c2c(C(F)(F)F)cc(C)n(C)c2=O)cc1)NC(=O)c1c(Cl)cccc1Cl (stereo partly specified)
Response given: 27.5

Challenge: Report Papp for Cc1cc(C(F)(F)F)c(-c2ccc(C[C@H](NC(=O)c3c(Cl)cccc3Cl)C(=O)OCC(O)CO)cc2)c(=O)n1C (stereo partly specified)
Response given: 1.8

Challenge: Report Papp for "Cc1cc(C(F)(F)F)c(-c2ccc(C[C@H](NC(=O)c3c(Cl)cccc3Cl)C(=O)OCC(=O)N(C)C)cc2)c(=O)n1C"
Response given: 6.3

Challenge: Report Papp for Cc1cc(C(F)(F)F)c(-c2ccc(C[C@H](NC(=O)c3c(Cl)cccc3Cl)C(=O)OCC3CCOC3)cc2)c(=O)n1C (stereo partly specified)
Response given: 76.4

Challenge: Report Papp for "Cc1cc(C(F)(F)F)c(-c2ccc(C[C@H](NC(=O)c3c(Cl)cccc3Cl)C(=O)OCCN3CCOCC3)cc2)c(=O)n1C"
Response given: 16.2

Challenge: Report Papp for "COCCCOC(=O)[C@H](Cc1ccc(-c2c(C(F)(F)F)cc(C)n(C)c2=O)cc1)NC(=O)c1c(Cl)cccc1Cl"
Response given: 22.8

====

# TEST: AUC in rat at 10 mg/kg, iv
# Assay type: ADME, organism-based
# Parameters: dose 10 mg/kg, route intravenous
# RUN PARAMETERS: plasma
QUANTITY MEASURED: AUC (ng·h/mL)
Field: numeric (ng·h/mL). Do not append units.

Challenge: Report AUC for "Cc1cc(C(F)(F)F)c(-c2ccc(C[C@H](NC(=O)c3c(Cl)cccc3Cl)C(=O)O)cc2)c(=O)n1C"
Response given: 10900

====

# ASSAY SYSTEM: Integrin alpha-4/beta-7 (Homo sapiens) (UniProt P13612+P26010)
# TEST: Inhibition of human MAdCAM1 binding to integrin alpha4beta7 receptor in human RPMI 8866 cells labeled with Calcein AM relative to RO0270608
# Format: cell-based
QUANTITY MEASURED: Ratio IC50
No unit in the answer, only the number.

Challenge: Report Ratio IC50 for "Cc1cc(C(F)(F)F)n(C)c(=O)c1-c1ccc(C[C@H](NC(=O)c2c(Cl)cccc2Cl)C(=O)O)cc1"
Response given: 2.2

Challenge: Report Ratio IC50 for "Cc1cc(C(F)(F)F)c(-c2ccc(C[C@H](NC(=O)c3c(Cl)cccc3Cl)C(=O)O)cc2)c(=O)n1C"
Response given: 6.5

New cases:
Challenge: Report Ratio IC50 for "Cc1ccn(C)c(=O)c1-c1ccc(C[C@H](NC(=O)c2c(Cl)cccc2Cl)C(=O)O)cc1"
Response given: 1.6

Challenge: Report Ratio IC50 for "Cc1cc(C(F)(F)F)c(-c2ccc(C[C@H](NC(=O)c3c(Cl)cccc3Cl)C(=O)O)cc2)c(=O)n1CC1CC1"
Response given: 0.34

Challenge: Report Ratio IC50 for "CCn1c(C)cc(C(F)(F)F)c(-c2ccc(C[C@H](NC(=O)c3c(Cl)cccc3Cl)C(=O)O)cc2)c1=O"
Response given: 1.9

Challenge: Report Ratio IC50 for "COCCC1(C(=O)N[C@@H](Cc2ccc(-c3c(C(F)(F)F)cc(C)n(C)c3=O)cc2)C(=O)O)CCCC1"
Response given: 0.54

====

# TEST: Clearance in monkey at 15 mg/kg, iv
# RUN PARAMETERS: cynomolgus monkey, in vivo
QUANTITY MEASURED: clearance (mL/min/kg)
Field: numeric (mL/min/kg). Do not append units.

Challenge: Report clearance for "Cc1cc(C(F)(F)F)c(-c2ccc(C[C@H](NC(=O)c3c(Cl)cccc3Cl)C(=O)O)cc2)c(=O)n1C"
Response given: 3

====

# ASSAY SYSTEM: Integrin alpha-4/beta-7 (Homo sapiens) (UniProt P13612+P26010)
# TEST: Inhibition of human MAdCAM1 binding to integrin alpha4beta7 receptor in human RPMI 8866 cells labeled with Calcein AM relative to RO0270608
# Format: cell-based
Classify as follows. Reported Ratio IC50 greater than or equal to 1: Y. Reported Ratio IC50 below: N.

Reference set, count: 5
Challenge: # bool: Ratio IC50 of "Cc1cccc(Cl)c1C(=O)N[C@@H](Cc1ccc(-c2c(C)ccn(C)c2=O)cc1)C(=O)O" >= 1
Response given: N

Challenge: # bool: Ratio IC50 of "Cc1cc(C(F)(F)F)c(-c2ccc(C[C@H](NC(=O)c3c(Cl)cccc3Cl)C(=O)O)cc2)c(=O)n1Cc1ccccc1" >= 1
Response given: N

Challenge: # bool: Ratio IC50 of "Cc1cc(C(F)(F)F)c(-c2ccc(C[C@H](NC(=O)c3c(Cl)cccc3Cl)C(=O)O)cc2)c(=O)[nH]1" >= 1
Response given: N

Challenge: # bool: Ratio IC50 of "Cc1cccc(Cl)c1C(=O)N[C@@H](Cc1ccc(-c2c(C)cc(C(F)(F)F)n(C)c2=O)cc1)C(=O)O" >= 1
Response given: Y

Challenge: # bool: Ratio IC50 of "Cc1cccc(C(C)C)c1C(=O)N[C@@H](Cc1ccc(-c2c(C(F)(F)F)cc(C)n(C)c2=O)cc1)C(=O)O" >= 1
Response given: N

New cases:
Challenge: # bool: Ratio IC50 of "CCc1cccc(C)c1C(=O)N[C@@H](Cc1ccc(-c2c(C(F)(F)F)cc(C)n(C)c2=O)cc1)C(=O)O" >= 1
Response given: N

Challenge: # bool: Ratio IC50 of "Cc1cccc(Cl)c1C(=O)N[C@@H](Cc1ccc(-c2c(C(F)(F)F)cc(C)n(C)c2=O)cc1)C(=O)O" >= 1
Response given: Y

Challenge: # bool: Ratio IC50 of "Cc1cccc(Cl)c1C(=O)N[C@@H](Cc1ccc(-c2cccn(C)c2=O)cc1)C(=O)O" >= 1
Response given: N

====

# TEST: Oral bioavailability in dog
# Assay type: ADME, organism-based, Canis lupus familiaris
# RUN PARAMETERS: in vivo
QUANTITY MEASURED: bioavailability (%)
Field: numeric (%). Do not append units.

Challenge: Report bioavailability for "CCOC(=O)[C@H](Cc1ccc(-c2c(C(F)(F)F)cc(C)n(C)c2=O)cc1)NC(=O)c1c(Cl)cccc1Cl"
Response given: 2

====

# TEST: Oral bioavailability in dog at 50 mg/kg
# Assay type: ADME, organism-based, Canis lupus familiaris
# RUN PARAMETERS: in vivo
QUANTITY MEASURED: bioavailability (%)
Field: numeric (%). Do not append units.

Challenge: Report bioavailability for "Cc1cc(C(F)(F)F)c(-c2ccc(C[C@H](NC(=O)c3c(Cl)cccc3Cl)C(=O)OCCCN3CCOCC3)cc2)c(=O)n1C"
Response given: 13

====

# ASSAY SYSTEM: Integrin alpha-4/beta-1 (Homo sapiens, UniProt P05556+P13612)
# Sequence (P05556 whole entry): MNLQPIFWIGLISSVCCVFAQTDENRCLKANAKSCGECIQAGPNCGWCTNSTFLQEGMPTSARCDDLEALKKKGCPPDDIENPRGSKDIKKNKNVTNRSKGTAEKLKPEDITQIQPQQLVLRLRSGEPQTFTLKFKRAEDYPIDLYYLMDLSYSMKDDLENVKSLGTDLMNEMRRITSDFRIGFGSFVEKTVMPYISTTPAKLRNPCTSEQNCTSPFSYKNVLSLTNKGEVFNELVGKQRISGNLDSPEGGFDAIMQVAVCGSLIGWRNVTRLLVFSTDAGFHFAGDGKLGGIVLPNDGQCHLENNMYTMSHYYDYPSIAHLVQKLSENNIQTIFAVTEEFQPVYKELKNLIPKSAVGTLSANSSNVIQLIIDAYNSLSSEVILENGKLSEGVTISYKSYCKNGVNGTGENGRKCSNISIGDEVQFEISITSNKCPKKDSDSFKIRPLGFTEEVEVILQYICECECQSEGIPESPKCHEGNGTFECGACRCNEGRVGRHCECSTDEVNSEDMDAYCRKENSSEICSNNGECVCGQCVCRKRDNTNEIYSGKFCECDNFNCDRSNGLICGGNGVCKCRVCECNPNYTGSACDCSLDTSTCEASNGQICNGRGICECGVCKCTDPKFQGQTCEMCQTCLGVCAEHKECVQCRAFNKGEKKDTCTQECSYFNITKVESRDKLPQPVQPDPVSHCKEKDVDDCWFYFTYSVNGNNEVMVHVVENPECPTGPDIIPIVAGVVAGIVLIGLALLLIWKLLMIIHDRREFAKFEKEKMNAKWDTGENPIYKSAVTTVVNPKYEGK
# Sequence (P13612 whole entry): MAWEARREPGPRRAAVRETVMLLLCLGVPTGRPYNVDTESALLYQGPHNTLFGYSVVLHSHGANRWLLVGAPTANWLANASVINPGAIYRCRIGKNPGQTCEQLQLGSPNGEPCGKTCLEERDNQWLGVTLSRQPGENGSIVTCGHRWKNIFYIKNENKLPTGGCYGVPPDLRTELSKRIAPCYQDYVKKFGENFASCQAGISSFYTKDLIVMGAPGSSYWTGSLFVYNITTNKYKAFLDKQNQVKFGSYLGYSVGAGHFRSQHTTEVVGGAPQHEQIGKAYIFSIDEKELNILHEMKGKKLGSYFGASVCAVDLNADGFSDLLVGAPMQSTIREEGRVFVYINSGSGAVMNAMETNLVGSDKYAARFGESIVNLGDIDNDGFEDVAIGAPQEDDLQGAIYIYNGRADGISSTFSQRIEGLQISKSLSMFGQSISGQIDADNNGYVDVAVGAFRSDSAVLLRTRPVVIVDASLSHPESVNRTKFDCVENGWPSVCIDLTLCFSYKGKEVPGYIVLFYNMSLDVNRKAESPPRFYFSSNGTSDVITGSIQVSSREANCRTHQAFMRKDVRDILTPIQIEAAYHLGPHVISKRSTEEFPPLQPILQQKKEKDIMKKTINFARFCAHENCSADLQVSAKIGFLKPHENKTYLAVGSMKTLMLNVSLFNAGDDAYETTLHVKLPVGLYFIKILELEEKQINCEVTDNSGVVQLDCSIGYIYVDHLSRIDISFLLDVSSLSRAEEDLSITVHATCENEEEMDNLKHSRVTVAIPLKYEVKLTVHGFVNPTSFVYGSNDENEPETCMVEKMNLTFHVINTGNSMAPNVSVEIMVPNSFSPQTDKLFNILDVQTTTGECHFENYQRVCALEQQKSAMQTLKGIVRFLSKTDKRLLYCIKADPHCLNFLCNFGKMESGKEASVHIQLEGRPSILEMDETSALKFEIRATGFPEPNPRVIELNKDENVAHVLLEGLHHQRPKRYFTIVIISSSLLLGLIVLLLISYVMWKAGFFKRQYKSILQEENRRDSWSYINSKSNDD
# TEST: Inhibition of human VCAM1 binding to integrin alpha4beta1 receptor in human Ramos cells labeled with Calcein AM
Items are presented alongside their recorded pIC50.
# log scale: pIC50 equals minus log10 of the concentration in mol/L

Challenge: Report pIC50 for "Cc1cc(C(F)(F)F)c(-c2ccc(C[C@H](NC(=O)c3c(Cl)cccc3Cl)C(=O)O)cc2)c(=O)n1CC1CC1"
Response given: 6.33

Challenge: Report pIC50 for "Cc1cccc(Cl)c1C(=O)N[C@@H](Cc1ccc(-c2c(C(F)(F)F)cc(C)n(C)c2=O)cc1)C(=O)O"
Response given: 7.32

Challenge: Report pIC50 for "COc1ccc(Br)c(C(=O)N[C@@H](Cc2ccc(-c3cccn(C)c3=O)cc2)C(=O)O)c1"
Response given: 6.38

Challenge: Report pIC50 for "Cc1cccc(Cl)c1C(=O)N[C@@H](Cc1ccc(NC(=O)c2c(Cl)cccc2Cl)cc1)C(=O)O"
Response given: 8.00

Challenge: Report pIC50 for "CCc1cccc(C)c1C(=O)N[C@@H](Cc1ccc(-c2c(C(F)(F)F)cc(C)n(C)c2=O)cc1)C(=O)O"
Response given: 6.65

Challenge: Report pIC50 for "Cc1cc(C(F)(F)F)c(-c2ccc(C[C@H](NC(=O)c3c(Cl)cccc3Cl)C(=O)O)cc2)c(=O)[nH]1"
Response given: 6.09

Challenge: Report pIC50 for "Cc1ccn(C)c(=O)c1-c1ccc(C[C@H](NC(=O)c2c(Cl)cccc2Cl)C(=O)O)cc1"
Response given: 7.05

Challenge: Report pIC50 for "Cc1cccc(C(C)C)c1C(=O)N[C@@H](Cc1ccc(-c2c(C(F)(F)F)cc(C)n(C)c2=O)cc1)C(=O)O"
Response given: 6.44

====

# TEST: Solubility in simulated intestinal fluid at pH 7.5
# Format: physicochemical
Classify as follows. Reported solubility greater than or equal to 4 µg/mL: T. Reported solubility below: F.

Challenge: # bool: solubility of "Cc1cc(C(F)(F)F)c(-c2ccc(C[C@H](NC(=O)c3c(Cl)cccc3Cl)C(=O)OCC(=O)N(C)C)cc2)c(=O)n1C" >= 4 µg/mL
Response given: F

Challenge: # bool: solubility of Cc1cc(C(F)(F)F)c(-c2ccc(C[C@H](NC(=O)c3c(Cl)cccc3Cl)C(=O)OCC(O)CO)cc2)c(=O)n1C (stereo partly specified) >= 4 µg/mL
Response given: T

Challenge: # bool: solubility of Cc1cc(C(F)(F)F)c(-c2ccc(C[C@H](NC(=O)c3c(Cl)cccc3Cl)C(=O)OCC3CCOC3)cc2)c(=O)n1C (stereo partly specified) >= 4 µg/mL
Response given: F

Challenge: # bool: solubility of "Cc1cc(C(F)(F)F)c(-c2ccc(C[C@H](NC(=O)c3c(Cl)cccc3Cl)C(=O)OCCN3CCOCC3)cc2)c(=O)n1C" >= 4 µg/mL
Response given: T

New cases:
Challenge: # bool: solubility of "Cc1cc(C(F)(F)F)c(-c2ccc(C[C@H](NC(=O)c3c(Cl)cccc3Cl)C(=O)OCCCN3CCOCC3)cc2)c(=O)n1C" >= 4 µg/mL
Response given: T
